Source listed as the RNAGym collection of RNA variant scans (doi:10.7554/elife.80360).

B1: HDV Ribozyme (parent)
chain: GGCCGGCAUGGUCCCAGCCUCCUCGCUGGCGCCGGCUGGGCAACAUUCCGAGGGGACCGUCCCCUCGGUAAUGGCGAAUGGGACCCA

- Variants of: B1
- Measurement protocol: self-cleavage, relative activity (ratio to wild type); higher = more cleavage; co-transcriptional
param class (str): category from self-cleavage; see ranges low-valued (below 0.2), mid-valued (0.2 to below 0.5), high-valued (0.5 or more)

Please review the following examples before continuing.
Mutation notation	Class assignment
G34A A78G	low-valued
G1A C85G	low-valued
A16C U23A	high-valued
G28U U72A	low-valued
U47G C48A	high-valued

Request: Which class holds U65C G74U ?
Result: high-valued

Request: Next variant: A83C C85G
Result: low-valued

Request: Check G5C G67C too.
Result: mid-valued

Request: Next variant up: C84G C86U
Result: high-valued

Request: Now consider G25U U37C and answer again.
Result: low-valued
